Assay: Half life in Wistar rat at 1 mg/kg, iv
Type: ADME, organism-based
Parameters: dose 1 mg/kg, route intravenous
Conditions: in vivo
property-measured: half-life (h)

[1] CC(=O)N1CCCC1(Cc1ccccc1)C(=O)OCc1ccccc1 (racemic)
[2] CC(=O)N1CCCC1(Cc1ccc(S(C)(=O)=O)cc1)C(=O)OCc1ccccc1 (stereo in doubt; 13)
-- ask For the pair 1 and 2 , which entry has the numerically smaller recorded half-life? Answer = label.
-- reply 2
(2: 0.3 h, 1: 2.4 h)

* * *

Test: Oral bioavailability in Wistar rat at 6 mg/kg
Format: ADME, organism-based
Details: in vivo
property-measured: bioavailability (%)

[1] CC(=O)N1CCCC1(Cc1ccc(S(C)(=O)=O)cc1)C(=O)OCc1ccccc1 (stereo in doubt; 13)
[2] CC(=O)N1CCCC1(Cc1ccccc1)C(=O)OCc1ccccc1 (racemic)
-- ask For the pair 1 and 2 , which entry has the numerically smaller recorded bioavailability? Answer = label.
-- reply 2
